Data credit: patent US9029373B2

System: LPS-stimulated PBMC TNFα release
experiment: LPS-stimulated PBMC TNFα release assay
Assay type: cell-based
test-parameters: human PBMCs, LPS 10 ng/ml, 18 h, TNFα by ELISA, at least three separate experiments, read-out: p38α inhibition (IC50 values), inhibition of TNFα release
Counter-ions that a name gives are not always drawn.
# IC50 values compiled below
attribute-measured: IC50

[[record]]
compound = "CC(C)c1nnc2ccc(O[C@@H]3CC[C@H](NC(=O)Nc4cc(C(C)(C)C)nn4-c4cccc(N5CCOCC5)c4)c4ccccc43)cn12"
measured_result = "< 10 nM"

[[record]]
compound = "CN1CCN(CCn2nc(C(C)(C)C)cc2NC(=O)N[C@H]2CC[C@@H](Oc3ccc4nnc(-c5c(Cl)cccc5Cl)n4c3)c3ccccc32)CC1 [Example 30, formate salt]"
measured_result = "< 10 nM"

[[record]]
compound = "CC(C)c1nnc2ccc(O[C@@H]3CC[C@H](NC(=O)Nc4cc(C(C)(C)C)nn4-c4cccc(OCCN5CCC(O)CC5)c4)c4ccccc43)cn12 [Example 22, formate salt]"
measured_result = "10 to 100 nM"


====

Tested on: LPS-stimulated PBMC TNFα release
experiment: LPS-stimulated PBMC TNFα release assay
Format: cell-based
test-parameters: human PBMCs, LPS 10 ng/ml, 18 h, TNFα by ELISA, at least three separate experiments, read-out: p38α inhibition (IC50 values), inhibition of TNFα release
Counter-ions that a name gives are not always drawn.
attribute-measured: IC50

[[record]]
molecule = "CN(C)CCn1nc(C(C)(C)C)cc1NC(=O)N[C@H]1CC[C@@H](Oc2ccc3nnc(-c4c(Cl)cccc4Cl)n3c2)c2ccccc21 [Example 28, formate salt]"
assayed_target = "LPS-stimulated PBMC TNFα release"
attribute_measured = "IC50"
measured_result = "< 0.01 µM"

[[record]]
molecule = "CC(C)(C)c1cc(NC(=O)N[C@H]2CC[C@@H](Oc3ccc4nnc(C5CCCCC5)n4c3)c3ccccc32)n(CCN2CCOCC2)n1 [Example 34, formate salt]"
assayed_target = "LPS-stimulated PBMC TNFα release"
attribute_measured = "IC50"
measured_result = "< 0.01 µM"

[[record]]
molecule = "CC(C)(C)c1cc(NC(=O)N[C@H]2CC[C@@H](Oc3ccc4nnc(-c5ccccc5Cl)n4c3)c3ccccc32)n(CCO)n1"
assayed_target = "LPS-stimulated PBMC TNFα release"
attribute_measured = "IC50"
measured_result = "< 0.01 µM"

[[record]]
molecule = "CC(C)(C)c1cc(NC(=O)N[C@H]2CC[C@@H](Oc3ccc4nnc(-c5c(Cl)cccc5Cl)n4c3)c3ccccc32)n(CCN2CCOCC2)n1 [Example 27, formate salt]"
assayed_target = "LPS-stimulated PBMC TNFα release"
attribute_measured = "IC50"
measured_result = "< 0.01 µM"

[[record]]
molecule = "CC(C)c1nnc2ccc(O[C@@H]3CC[C@H](NC(=O)Nc4cc(C(C)(C)C)nn4C4CCN(C)CC4)c4ccccc43)cn12"
assayed_target = "LPS-stimulated PBMC TNFα release"
attribute_measured = "IC50"
measured_result = "0.1 to 1 µM"

[[record]]
molecule = "CC(C)(C)c1cc(NC(=O)N[C@H]2CC[C@@H](Oc3ccc4nnc(-c5c(Cl)cccc5Cl)n4c3)c3ccccc32)n(CCO)n1"
assayed_target = "LPS-stimulated PBMC TNFα release"
attribute_measured = "IC50"
measured_result = "< 0.01 µM"

[[record]]
molecule = "CC(C)(C)c1cc(NC(=O)N[C@H]2CC[C@@H](Oc3ccc4nnc(-c5ccccc5Cl)n4c3)c3ccccc32)n(CCN2CCOCC2)n1 [Example 32, formate salt]"
assayed_target = "LPS-stimulated PBMC TNFα release"
attribute_measured = "IC50"
measured_result = "< 0.01 µM"

[[record]]
molecule = "CC(C)c1nnc2ccc(O[C@@H]3CC[C@H](NC(=O)Nc4cc(C(C)(C)C)nn4-c4ccc(CO)cc4)c4ccccc43)cn12"
assayed_target = "LPS-stimulated PBMC TNFα release"
attribute_measured = "IC50"
measured_result = "< 0.01 µM"

[[record]]
molecule = "CC(C)c1nnc2ccc(O[C@@H]3CC[C@H](NC(=O)Nc4cc(C(C)(C)C)nn4CCN4CCOCC4)c4ccccc43)cn12"
assayed_target = "LPS-stimulated PBMC TNFα release"
attribute_measured = "IC50"
measured_result = "0.01 to 0.1 µM"

[[record]]
molecule = "Cn1nc(C(C)(C)C)cc1NC(=O)N[C@H]1CC[C@@H](Oc2ccc3nnc(-c4c(Cl)cccc4Cl)n3c2)c2ccccc21"
assayed_target = "LPS-stimulated PBMC TNFα release"
attribute_measured = "IC50"
measured_result = "< 0.01 µM"

[[record]]
molecule = "CC(C)c1nnc2ccc(O[C@H]3CC[C@H](NC(=O)Nc4cc(C(C)(C)C)nn4-c4ccc(CO)cc4)c4ccccc43)cn12"
assayed_target = "LPS-stimulated PBMC TNFα release"
attribute_measured = "IC50"
measured_result = "< 0.01 µM"

[[record]]
molecule = "CC(C)c1nnc2ccc(O[C@H]3CC[C@H](NC(=O)Nc4cc(C(C)(C)C)nn4-c4ccc(C#N)cc4)c4ccccc43)cn12"
assayed_target = "LPS-stimulated PBMC TNFα release"
attribute_measured = "IC50"
measured_result = "< 0.01 µM"

